Molecular target: T1, CDK4/cyclin D1 (as used in the binding assay) (UniProt P11802 1-303; P24385 1-295)
T1 construct: kept apart from the GST-tagged kinase-assay complex m2; also called CDK4/D1
Test: FP binding assay
No end group written: not given here. *: point of attachment. X1 = 1‑(3,5-dichlorophenyl)‑5‑methyl‑1H‑1,2,4‑triazole‑3‑carbonyl, Cc1nc(C(=O)*)nn1-c1cc(Cl)cc(Cl)c1; Pyrazole N‑cap (R1 Cl, R2 H, R3 H, R4 CH3, W N, X N, Y C, Z C) = not defined here; Pyrazole N‑cap (R1 F, R2 H, R3 H, R4 CH3, W N, X N, Y C, Z C) = not defined here
Each entry below carries its recorded IC50.

Illustrative cases are given below, each with its answer.
* {Pyrazole N‑cap (R1 F, R2 H, R3 H, R4 CH3, W N, X N, Y C, Z C)}-RLIF (reading uncertain; also: cap structure given only by scaffold parameters) [SCCP 5771 (Pyrazole N-cap ligated to RLIF)] | 69.6 µM
* X1-RLIF (also called SCCP 5773; 3,5-dichlorophenyl triazole) [1-(3,5-dichlorophenyl)-5-methyl-1H-1,2,4-triazole-3-carbonyl-RLIF] | 27 µM

[Q] GET /values?readout=IC50&item= {Pyrazole N‑cap (R1 Cl, R2 H, R3 H, R4 CH3, W N, X N, Y C, Z C)}-RLIF (reading uncertain; also: cap structure given only by scaffold parameters) [SCCP 5764 (Pyrazole N-cap ligated to RLIF)]
[A] 45 µM

[Q] GET /values?readout=IC50&item= {Triazole N‑cap (R1 H, R2 H, R3 H, R4 H, W N, X N, Y N, Z C)}-RLIF (also: cap structure given only by scaffold parameters) [SCCP 5843 (Triazole N-cap ligated to RLIF)]
[A] 48.7 µM
